pKd: −log10 of the molar value.
Assay read-out pKd; system under study: main protease (Severe acute respiratory syndrome coronavirus 2).

compound | pKd
Cc1ccc(C2CC(c3cccs3)=NN2C(=O)CSc2nnc(CNC(=O)c3ccco3)n2-c2cccc(Cl)c2)cc1 (stereo not drawn) [LC24-20] | 4.70
Cc1ccc(CNC(=O)C2CC(n3cnnn3)CN2Cc2ccc(OCc3ccccc3)cc2)cc1 (stereo not drawn) [CB-25] | 4.97
Cc1cc(CNC(=O)Nn2cnc3ccccc32)ccc1F [CP-1] | 5.29

---

pIC50: −log10 of the molar value.
Notes on pIC50 obtained with SARS-CoV-2 Mpro (Severe acute respiratory syndrome coronavirus 2).
measure.name: pIC50

compound | measure.name | endpoint.value
Cc1cc(CNC(=O)Nn2cnc3ccccc32)ccc1F [CP-1] | pIC50 | 4.73
Cc1ccc(C2CC(c3cccs3)=NN2C(=O)CSc2nnc(CNC(=O)c3ccco3)n2-c2cccc(Cl)c2)cc1 (stereo not drawn) [LC24-20] | pIC50 | 4.48
Cc1ccc(CNC(=O)C2CC(n3cnnn3)CN2Cc2ccc(OCc3ccccc3)cc2)cc1 (stereo not drawn) [CB-25] | pIC50 | 4.64
